- Target entity: CV S-protein construct 6 trimer TP31001F (SARS-CoV-2, UniProt P0DTC2 14-1208)
- Assay protocol: SPR
Would you kindly list pKd for each of these binders?
Please note pKd is a logarithmic value: minus log10 of concentration in mol/L. Answer with that number alone.

Prompt: Give the measured pKd of variant 6-75 (Fc fusion) VHH: EVQLVESGGGLVQPGGSLRLSCAASGGTFSTYWMGWFRQAPGKEREFVAAISRSGGNTYYADSVKGRFTISADNSKNTAYLQMNSLKPEDTAVYYCVRHSGTDGDSSFDYWGQGTLVTVSS .
Response: 9.00

Prompt: Give the measured pKd of variant 6-5 (Fc fusion) VHH: EVQLVESGGGLVQPGGSLRLSCAASGRTFTMGWFRQAPGKEREFVASTNSAGSTNYADSVNGRFTISADNSKNTAYLQMNSLKPEDTAVYYCTTVDQYFDYWGQGTLVTVSS .
Response: 9.10
